Cited source: patent US12473262B2

Measured Fold @ 100 nM values are reported for all entries that follow.
assay.target: aryl hydrocarbon receptor (AhR) (Mus musculus (Mouse))
Sequence (P30561 10-805): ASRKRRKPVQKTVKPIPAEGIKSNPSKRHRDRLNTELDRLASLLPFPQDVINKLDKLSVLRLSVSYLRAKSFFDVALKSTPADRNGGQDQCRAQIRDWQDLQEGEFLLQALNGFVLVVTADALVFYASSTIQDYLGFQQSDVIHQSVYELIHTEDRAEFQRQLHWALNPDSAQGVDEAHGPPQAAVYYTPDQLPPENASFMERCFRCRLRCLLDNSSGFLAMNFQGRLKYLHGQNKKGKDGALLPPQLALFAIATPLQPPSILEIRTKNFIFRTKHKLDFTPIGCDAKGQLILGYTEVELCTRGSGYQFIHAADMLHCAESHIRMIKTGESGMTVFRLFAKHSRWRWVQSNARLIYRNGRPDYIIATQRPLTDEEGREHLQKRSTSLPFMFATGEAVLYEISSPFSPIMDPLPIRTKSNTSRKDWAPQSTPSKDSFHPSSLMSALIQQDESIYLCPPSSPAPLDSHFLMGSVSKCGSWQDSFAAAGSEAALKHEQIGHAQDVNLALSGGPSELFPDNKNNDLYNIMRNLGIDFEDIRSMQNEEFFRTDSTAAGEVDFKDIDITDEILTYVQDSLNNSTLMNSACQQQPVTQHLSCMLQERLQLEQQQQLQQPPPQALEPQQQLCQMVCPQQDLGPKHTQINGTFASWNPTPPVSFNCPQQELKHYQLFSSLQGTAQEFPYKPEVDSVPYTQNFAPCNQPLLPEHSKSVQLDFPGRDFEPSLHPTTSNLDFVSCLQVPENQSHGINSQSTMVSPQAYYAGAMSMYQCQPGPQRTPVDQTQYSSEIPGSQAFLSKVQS
Sequence (P53762 whole entry partner): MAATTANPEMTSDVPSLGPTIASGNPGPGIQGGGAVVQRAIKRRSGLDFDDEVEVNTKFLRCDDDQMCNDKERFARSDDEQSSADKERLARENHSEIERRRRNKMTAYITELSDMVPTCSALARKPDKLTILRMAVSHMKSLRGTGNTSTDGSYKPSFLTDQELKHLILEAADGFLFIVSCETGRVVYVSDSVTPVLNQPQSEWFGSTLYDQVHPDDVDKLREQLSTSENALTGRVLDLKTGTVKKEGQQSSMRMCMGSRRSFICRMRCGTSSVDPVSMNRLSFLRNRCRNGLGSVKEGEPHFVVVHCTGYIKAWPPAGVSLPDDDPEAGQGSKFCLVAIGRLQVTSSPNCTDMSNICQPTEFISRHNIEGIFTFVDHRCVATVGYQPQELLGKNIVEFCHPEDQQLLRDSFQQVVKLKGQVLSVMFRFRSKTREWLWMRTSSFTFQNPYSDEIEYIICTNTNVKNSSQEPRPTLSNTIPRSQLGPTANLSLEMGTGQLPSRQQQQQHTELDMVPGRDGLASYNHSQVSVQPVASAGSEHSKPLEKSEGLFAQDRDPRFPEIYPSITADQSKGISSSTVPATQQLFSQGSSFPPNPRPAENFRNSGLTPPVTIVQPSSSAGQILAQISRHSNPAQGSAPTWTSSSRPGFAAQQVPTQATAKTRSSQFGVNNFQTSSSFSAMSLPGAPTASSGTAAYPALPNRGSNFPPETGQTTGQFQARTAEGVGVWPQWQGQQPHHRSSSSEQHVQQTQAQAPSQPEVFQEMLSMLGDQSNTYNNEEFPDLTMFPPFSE
protocol.summary: AhR ligand screening: AhRE-luciferase reporter in transfected Hepa1 cells
Type: cell-based
conditions.used: fold change of luciferase expression at 100 nM test compound relative to vehicle (0.1% DMSO)
Text: The AhR is a ligand-activated transcription factor that dimerizes with ARNT to regulate gene expression, and genes that are regulated by AhR ligands have AhR response elements (AhRE) in their promotor regions. Briefly, Hepa1 cells were transfected with a reporter construct consisting of AhRE linked to luciferase. […] Data were expressed as fold induction of luciferase relative to vehicle (0.1% DMSO) treated cells.

These recorded examples may help you get a feel for the data.
INSERT INTO measurements (molecule, test_result) VALUES
  ('O=c1c2cccc3cccc(c32)c2nc3cc(Cl)ccc3n12', '22 fold'),
  ('O=C(c1ccc(F)c(F)c1)n1c(-c2cc3ccccc3o2)nc2cc(Cl)ccc21', '12 fold'),
  ('COC(=O)c1ccc2c(c1)nc(-c1cccc3ccccc13)n2C(=O)c1ccc(F)c(F)c1', '1 fold'),
  ('O=C(c1cccc2ccccc12)n1c(-c2ccccc2)nc2ccc(Cl)cc21', '1 fold'),
  ('O=C(c1ccc(C(F)(F)F)cc1)c1c[nH]c2ccc(Cl)cc12', '1 fold');

// query Request the reported Fold @ 100 nM associated with CC1(O)c2cccc3cccc(c23)-c2nc3ccccc3n21 (stereo not drawn)
// result 5.6 fold

// query Request the reported Fold @ 100 nM associated with `O=S(=O)(C1CC1)n1c(-c2cccc3ccccc23)nc2cc(Cl)ccc21`
// result 1 fold

// query Request the reported Fold @ 100 nM associated with `Clc1ccc2c(c1)nc1n2Cc2cccc3cccc-1c23`
// result 28 fold

// query Request the reported Fold @ 100 nM associated with `COc1ccc2c(c1)nc(-c1cccc3ccccc13)n2C(=O)c1ccccc1`
// result 1 fold

====

Measured Fold @ 100 nM values are reported for all entries that follow.
assay.target: aryl hydrocarbon receptor (AhR) (Mus musculus (Mouse))
protocol.summary: AhR ligand screening: AhRE-luciferase reporter in transfected Hepa1 cells
Assay type: cell-based
conditions.used: fold change of luciferase expression at 100 nM test compound relative to vehicle (0.1% DMSO)
Excerpt: The AhR is a ligand-activated transcription factor that dimerizes with ARNT to regulate gene expression, and genes that are regulated by AhR ligands have AhR response elements (AhRE) in their promotor regions. Briefly, Hepa1 cells were transfected with a reporter construct consisting of AhRE linked to luciferase. […] Data were expressed as fold induction of luciferase relative to vehicle (0.1% DMSO) treated cells.
Answer format: numeric, fold implied, no suffix.

These recorded examples may help you get a feel for the data.
INSERT INTO assay_data (molecule, endpoint_label, test_result) VALUES
  ('N#Cc1ccc(S(=O)(=O)n2c(-c3cccc4ccccc34)nc3ccc(C(=O)N4CCCCC4)cc32)cc1 [Compound 1337]', 'Fold @ 100 nM', 1),
  ('COC(=O)c1ccc2c(c1)nc(-c1cccc3ccccc13)n2Cc1ccc(Cl)cc1 [Compound 1406]', 'Fold @ 100 nM', 1),
  ('COC(=O)c1ccc2c(c1)nc(-c1cccc3ccccc13)n2S(=O)(=O)c1ccc(Cl)cc1 [Compound 1385]', 'Fold @ 100 nM', 2);

Let us move to another entry and its Fold @ 100 nM.
// query Request the reported Fold @ 100 nM associated with Clc1ccc2c(c1)nc(-c1cccc3ccccc13)n2Cc1ccccc1 [Compound 533]
// result 1

====

Measured Fold @ 10 uM values are reported for all entries that follow.
assay.target: aryl hydrocarbon receptor (AhR) (Mus musculus (Mouse))
protocol.summary: AhR ligand screening: AhRE-luciferase reporter in transfected Hepa1 cells
Assay type: cell-based
conditions.used: fold change of luciferase expression at 10 uM test compound relative to vehicle (0.1% DMSO)
Answer format: numeric, fold implied, no suffix.

INSERT INTO measurements (compound, assay_target, measurement_unit, test_result) VALUES
  ('O=C1c2ccccc2-c2nc3cc(Cl)ccc3n21', 'aryl hydrocarbon receptor (AhR) (Mus musculus (Mouse))', 'fold', 5),
  ('COC(=O)c1ccc2nc(-c3cccc4ccccc34)n(S(=O)(=O)c3ccc4ccccc4c3)c2c1', 'aryl hydrocarbon receptor (AhR) (Mus musculus (Mouse))', 'fold', 13),
  ('Cc1ccc(S(=O)(=O)n2c(-c3cccc4ccccc34)nc3cc(Cl)ccc32)cc1', 'aryl hydrocarbon receptor (AhR) (Mus musculus (Mouse))', 'fold', 36),
  ('O=C(c1ccc(SC(F)(F)F)cc1)c1c[nH]c2ccc(Cl)cc12', 'aryl hydrocarbon receptor (AhR) (Mus musculus (Mouse))', 'fold', 16),
  ('O=C(c1ccc2c(c1)nc(-c1cccc3ccccc13)n2S(=O)(=O)c1ccc2ccccc2c1)N1CCCCC1', 'aryl hydrocarbon receptor (AhR) (Mus musculus (Mouse))', 'fold', 8),
  ('O=C(c1ccccc1)n1c(-c2ccc3ccccc3c2)nc2cc(F)ccc21', 'aryl hydrocarbon receptor (AhR) (Mus musculus (Mouse))', 'fold', 31),
  ('Clc1ccc2c(c1)nc(-c1cccc3ccccc13)n2Cc1ccccc1', 'aryl hydrocarbon receptor (AhR) (Mus musculus (Mouse))', 'fold', 13),
  ('O=C(c1ccc(F)c(F)c1)n1c(-c2cccc3ccccc23)nc2cc(Cl)ccc21 [Compound 530]', 'aryl hydrocarbon receptor (AhR) (Mus musculus (Mouse))', 'fold', 56);

Let us move to another entry and its Fold @ 10 uM.
// query Form field: Fold @ 10 uM recorded for `O=C(c1ccc(F)c(F)c1)n1c(-c2ccc(F)c(Cl)c2)nc2cc(Cl)ccc21` with aryl hydrocarbon receptor (AhR) (Mus musculus (Mouse)) (enter value)
// result 14

====

assay.target: CYP-2C8 (Homo sapiens (Human), UniProt P10632)
Sequence (P10632 whole entry): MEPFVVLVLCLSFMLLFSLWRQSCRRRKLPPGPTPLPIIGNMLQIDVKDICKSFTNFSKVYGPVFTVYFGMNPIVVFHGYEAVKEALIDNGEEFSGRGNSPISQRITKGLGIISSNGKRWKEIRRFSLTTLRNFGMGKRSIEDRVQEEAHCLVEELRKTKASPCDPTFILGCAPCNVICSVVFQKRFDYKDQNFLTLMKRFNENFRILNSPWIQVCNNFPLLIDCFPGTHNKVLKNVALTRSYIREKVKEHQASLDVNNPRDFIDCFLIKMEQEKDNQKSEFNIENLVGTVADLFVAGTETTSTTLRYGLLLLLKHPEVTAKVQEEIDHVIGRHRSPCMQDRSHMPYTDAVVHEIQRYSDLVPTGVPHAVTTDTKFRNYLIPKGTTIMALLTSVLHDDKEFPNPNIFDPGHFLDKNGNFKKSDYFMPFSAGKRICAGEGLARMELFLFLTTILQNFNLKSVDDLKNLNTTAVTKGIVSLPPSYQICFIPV
protocol.summary: CYP panel profile: P450 inhibition, CYP-2C8
Assay type: in vitro ADME
conditions.used: human liver microsomes
endpoint.label: IC50 (µM)
Answer format: numeric, µM implied, no suffix.

INSERT INTO measurements (compound, endpoint_label, test_result) VALUES
  ('COC(=O)c1ccc2nc(-c3cccc4ccccc34)n(C(=O)c3ccc(F)c(F)c3)c2c1', 'IC50', 4.1);

// query Form field: IC50 recorded for O=C(c1ccc(F)c(F)c1)n1c(-c2cccc3ccccc23)nc2cc(Cl)ccc21 [Compound 529] with CYP-2C8 (Homo sapiens (Human), UniProt P10632) (enter value)
// result 9.6

// query Form field: IC50 recorded for `O=C(c1ccccc1)n1c(-c2cccc3ccccc23)nc2cc(Cl)c(Cl)cc21` with CYP-2C8 (Homo sapiens (Human), UniProt P10632) (enter value)
// result 3.5

====

assay.target: CYP-2C9 (Homo sapiens (Human), UniProt P11712)
Sequence (P11712 whole entry): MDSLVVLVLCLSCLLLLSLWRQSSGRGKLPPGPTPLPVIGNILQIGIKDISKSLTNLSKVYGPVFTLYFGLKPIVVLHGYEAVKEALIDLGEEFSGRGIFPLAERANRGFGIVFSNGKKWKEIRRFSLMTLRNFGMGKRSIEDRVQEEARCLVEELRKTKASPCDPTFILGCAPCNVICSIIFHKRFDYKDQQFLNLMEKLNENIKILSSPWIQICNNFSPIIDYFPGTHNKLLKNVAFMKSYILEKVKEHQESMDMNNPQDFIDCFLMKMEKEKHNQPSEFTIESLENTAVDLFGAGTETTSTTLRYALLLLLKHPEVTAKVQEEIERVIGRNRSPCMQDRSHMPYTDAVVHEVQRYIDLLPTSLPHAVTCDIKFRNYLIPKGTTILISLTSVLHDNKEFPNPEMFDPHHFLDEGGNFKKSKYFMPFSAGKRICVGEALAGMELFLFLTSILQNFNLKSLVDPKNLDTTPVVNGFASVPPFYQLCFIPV
protocol.summary: CYP panel profile: P450 inhibition, CYP-2C9
Type: in vitro ADME
conditions.used: human liver microsomes
Measured IC50 values are reported for all entries that follow.
Answer format: numeric, µM implied, no suffix.

These recorded examples may help you get a feel for the data.
INSERT INTO measurements (molecule, endpoint_label, test_result) VALUES
  ('O=C(c1ccc(F)cc1)n1c(-c2cccc3ccccc23)nc2cc(Cl)ccc21 [Compound 586]', 'IC50', 7.9),
  ('O=C(c1ccc(F)c(F)c1)n1c(-c2ccc(-c3ccccc3)cc2)nc2ccc(Cl)cc21 [Compound 644]', 'IC50', 2.7);

// query Request the reported IC50 associated with O=C(c1ccc(F)c(F)c1)n1c(-c2ccc(-c3ccccc3)cc2)nc2cc(Cl)ccc21 [Compound 643]
// result 9.2

// query Request the reported IC50 associated with O=C(C1CC1)n1c(-c2cccc3ccccc23)cc2cc(Cl)ccc21 [Compound 972]
// result 7

====

Measured pIC50 values are reported for all entries that follow.
assay.target: CYP-2C19 (Homo sapiens (Human), UniProt P33261)
Sequence (P33261 whole entry): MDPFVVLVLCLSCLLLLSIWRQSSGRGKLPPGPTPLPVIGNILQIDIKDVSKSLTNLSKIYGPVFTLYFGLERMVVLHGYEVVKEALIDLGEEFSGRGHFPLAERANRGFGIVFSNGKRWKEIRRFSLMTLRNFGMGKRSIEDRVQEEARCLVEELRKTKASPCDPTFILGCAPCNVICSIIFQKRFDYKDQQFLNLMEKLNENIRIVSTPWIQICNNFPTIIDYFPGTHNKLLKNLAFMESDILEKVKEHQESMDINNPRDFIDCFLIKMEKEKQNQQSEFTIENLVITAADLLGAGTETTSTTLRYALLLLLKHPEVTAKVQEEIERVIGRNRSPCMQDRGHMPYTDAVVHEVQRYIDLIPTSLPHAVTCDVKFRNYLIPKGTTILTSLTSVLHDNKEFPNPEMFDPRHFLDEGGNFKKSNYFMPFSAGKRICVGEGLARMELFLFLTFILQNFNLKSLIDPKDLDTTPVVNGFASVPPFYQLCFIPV
protocol.summary: CYP panel profile: P450 inhibition, CYP-2C19
Type: in vitro ADME
conditions.used: human liver microsomes
pIC50: −log10 of the molar value.

INSERT INTO measurements (mol, test_result) VALUES
  ('O=C(c1ccc(F)c(F)c1)n1c(-c2ccc(-c3ccccc3)cc2)nc2ccc(Cl)cc21', '< 4.30');

// query Request the reported pIC50 associated with `Clc1ccc2c(c1)nc1n2Cc2cccc3cccc-1c23`
// result < 4.30

// query Request the reported pIC50 associated with `O=C(c1ccc(F)c(F)c1)n1c(-c2ccc(-c3ccccc3)cc2)nc2cc(Cl)ccc21`
// result < 4.30

====

assay.target: CYP-2C8 (Homo sapiens (Human))
protocol.summary: CYP panel profile: P450 inhibition, CYP-2C8
Type: in vitro ADME
conditions.used: human liver microsomes
Measured IC50 values are reported for all entries that follow.

These recorded examples may help you get a feel for the data.
INSERT INTO measurements (compound, test_result) VALUES
  ('O=C(c1ccc(F)cc1)n1c(-c2cccc3ccccc23)nc2cc(Cl)ccc21', '9.1 µM'),
  ('O=C(c1ccc(F)c(F)c1)n1c(-c2cccc3ccccc23)nc2cc(Cl)ccc21 [Compound 530]', '9.4 µM'),
  ('O=C(c1ccc(F)c(F)c1)n1c(-c2ccc(-c3ccccc3)cc2)nc2cc(Cl)ccc21', '12.3 µM');

// query Request the reported IC50 associated with `Clc1ccc2[nH]c(-c3cccc4ccccc34)cc2c1`
// result 7.7 µM
